tested.target: IDO1 (A172+IFNg cells, high IDO expressing cells) (Homo sapiens, UniProt P14902)
Construct: A172+IFNg cells (high IDO expressing cells); endogenous in cells
Sequence (P14902 whole entry): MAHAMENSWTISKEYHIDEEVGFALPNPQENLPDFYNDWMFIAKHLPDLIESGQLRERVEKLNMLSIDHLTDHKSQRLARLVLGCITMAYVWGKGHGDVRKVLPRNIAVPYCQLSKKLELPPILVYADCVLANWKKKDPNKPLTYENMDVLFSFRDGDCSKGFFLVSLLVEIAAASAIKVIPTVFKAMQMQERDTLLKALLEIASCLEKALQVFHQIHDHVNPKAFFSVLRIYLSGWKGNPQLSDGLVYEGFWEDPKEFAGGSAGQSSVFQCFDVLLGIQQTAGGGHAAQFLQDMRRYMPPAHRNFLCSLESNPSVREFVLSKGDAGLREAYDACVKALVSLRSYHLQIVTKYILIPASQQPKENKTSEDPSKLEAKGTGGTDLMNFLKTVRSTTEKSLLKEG
method.description: NFK GreenScreen cell assay, inhibition of IDO in A172+IFNg cells
particulars: read-out: IDO cell Fluor EC50
metric: EC50 (µM)

N#CC1(C(=O)N2CCC3(CC2)C[C@@H]([C@H]2c4ccccc4-c4cncn42)[C@H]3O)CC1 = 0.12

A = Cn1cc(S(=O)(=O)N2CCC3(CC2)CC(C2c4ccccc4-c4cncn42)C3O)cn1 (stereo not shown)
B = CS(=O)(=O)N1CCC2(CC[C@@H]([C@@H]3c4ccccc4-c4cncn43)[C@@H]2O)CC1 (single isomer, unassigned)
C = CC(C)(C)OC(=O)N1[C@@H]2CC[C@H]1C[C@@]1(C[C@H]([C@@H]3c4ccccc4-c4cncn43)[C@@H]1O)C2 (single isomer, unassigned) [Example 12i]
IN: Order the records so the highest EC50 appears first and the lowest last. Form entry: labels listed in requested order.
OUT: C, B, A

Entry source: patent US11603373B2
